tested-on: Toll-like receptor 8 (Homo sapiens) (UniProt Q9NR97)
test-name: Agonist activity at TLR8 in human PBMC assessed as induction of IL-1beta levels after 16 hrs by immunoassay
The source made the active and inactive calls. No cut-off for these calls is given here.
Lab note: assign the record to one of y = active, n = inactive

These solved cases illustrate the format of a correct answer.
Entry "CCCCNc1nc(N)nc(-c2ccccc2)c1CCCCN" : call = ?
n

Entry "CCCCCn1c(N)nc2c(C)cccc21" : call = ?
y

Entry "CCCCNc1cc(-c2ccccc2)nc(N)n1" : call = ?
n

---
Entry "CCCCNc1nc(N)nc(C)c1CCCCN" : call = ?
n

Entry "CCCCNc1nc(N)nc(C)c1I" : call = ?
y

###

# pEC50 listing for each entry below
tested-on: Toll-like receptor 8 (Homo sapiens, UniProt Q9NR97)
Sequence (Q9NR97 whole entry): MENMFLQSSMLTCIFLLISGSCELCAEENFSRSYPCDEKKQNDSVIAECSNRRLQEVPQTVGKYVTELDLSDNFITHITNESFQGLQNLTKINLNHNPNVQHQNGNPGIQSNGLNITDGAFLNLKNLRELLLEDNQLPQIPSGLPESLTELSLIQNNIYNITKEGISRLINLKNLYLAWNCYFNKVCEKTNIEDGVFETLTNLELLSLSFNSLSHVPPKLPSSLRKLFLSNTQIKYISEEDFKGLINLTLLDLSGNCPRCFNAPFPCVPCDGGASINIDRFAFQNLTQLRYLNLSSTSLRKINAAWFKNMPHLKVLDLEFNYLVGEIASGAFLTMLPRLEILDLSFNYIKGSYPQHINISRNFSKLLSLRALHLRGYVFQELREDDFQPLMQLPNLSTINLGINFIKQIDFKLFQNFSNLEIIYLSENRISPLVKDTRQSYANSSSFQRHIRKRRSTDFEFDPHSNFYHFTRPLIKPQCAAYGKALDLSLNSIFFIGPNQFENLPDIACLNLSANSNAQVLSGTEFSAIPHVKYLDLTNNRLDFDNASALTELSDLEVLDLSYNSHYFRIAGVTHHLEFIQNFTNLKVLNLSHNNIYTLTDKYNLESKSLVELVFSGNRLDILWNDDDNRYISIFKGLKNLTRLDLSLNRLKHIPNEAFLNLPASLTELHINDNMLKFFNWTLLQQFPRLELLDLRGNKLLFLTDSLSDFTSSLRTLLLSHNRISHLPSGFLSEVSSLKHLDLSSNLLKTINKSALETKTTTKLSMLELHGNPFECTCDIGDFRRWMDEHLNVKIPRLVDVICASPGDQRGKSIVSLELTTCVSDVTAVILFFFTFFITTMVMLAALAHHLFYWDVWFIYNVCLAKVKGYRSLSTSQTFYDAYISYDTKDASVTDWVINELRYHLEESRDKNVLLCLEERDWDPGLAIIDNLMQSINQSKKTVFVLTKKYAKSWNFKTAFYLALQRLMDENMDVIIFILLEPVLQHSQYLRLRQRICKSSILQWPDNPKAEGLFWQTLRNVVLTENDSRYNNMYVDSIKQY
test-name: Agonist activity at human TLR8 expressed in HEK293 cells assessed as induction of NF-kappaB activity by secreted alkaline phosphatase reporter gene assay
Format: cell-based
To interpret pEC50, take it as minus log10 of a concentration measured in moles per litre.

Known results for compounds:
Supply recorded pEC50 for "CCCCNc1nc(N)nc(C)c1Cc1ccccc1" here.
5.92

Supply recorded pEC50 for "CCCCCn1c(N)nc2c(C)cccc21" here.
5.74

Supply recorded pEC50 for "CCCCNc1nc(N)nc(C)c1CCCCN" here.
6.52

---
Supply recorded pEC50 for "CCCCNc1nc(N)nc(C)c1I" here.
5.79

Supply recorded pEC50 for "CCCCNc1nc(N)nc(C)c1Cl" here.
4.70

Supply recorded pEC50 for "CCCCNc1nc(N)nc(C)c1CCCCCN" here.
6.52

Supply recorded pEC50 for "CCCCNc1cc(-c2ccccc2)nc(N)n1" here.
5.17

Supply recorded pEC50 for "CCCCNc1nc(N)nc(C)c1Br" here.
5.07

Supply recorded pEC50 for "CCCCNc1nc(N)nc(C)c1F" here.
4.47

Supply recorded pEC50 for "CCCCCNc1nc(N)nc(C)c1I" here.
5.43

###

tested-on: Toll-like receptor 8 (Homo sapiens, UniProt Q9NR97)
test-name: Agonist activity at TLR8 in human PBMC assessed as increase in TNF-alpha production after 16 hrs by immunoassay
observation-type: pEC50
To interpret pEC50, take it as minus log10 of a concentration measured in moles per litre.

Supply recorded pEC50 for "CCCCNc1nc(N)nc(C)c1CCCCN" here.
5.03

###

tested-on: Toll-like receptor 8 (Homo sapiens) (UniProt Q9NR97)
test-name: Agonist activity at TLR8 in human PBMC assessed as Th1-biased stimulatory activity measured as IL-12 release after 16 hrs by immunoassay
Active and inactive are the calls of the source. The calls are words filed in the database; no cut-off is given here.
Lab note: assign the record to one of T for active, F for inactive

These solved cases illustrate the format of a correct answer.
Entry "CCCCNc1cc(-c2ccccc2)nc(N)n1" : call = ?
F

Entry "CCCCNc1nc(N)nc(C)c1CCCCN" : call = ?
T

Entry "CCCCNc1nc(N)nc(-c2ccccc2)c1CCCCN" : call = ?
F

--- query ---
Entry "CCCCNc1nc(N)nc(C)c1I" : call = ?
T
